Experiment: folding stability dG unfold (combined trypsin and chymotrypsin); higher = more stable
Exercise: state measured folding stability dG unfold for each of the sequences provided.
The response must be a number in kcal/mol with no trailing unit.

Look at this sequence and give its reported folding stability dG unfold. SAGGSAGGMKVRVKIEVEGKTLEIEIEVPEEKREEALEKAKKLAEKLAEELDVEVKIVEVEEEPSAGGSAGG [r6_459_TrROS_Hall] 2.01

Next record, please: SAGGSAGGSAGGKITFAPKTTLLLTATIPVTVYSLHPDGTLTTETRSATITFTIPPELLSAGGSAGGSAGGS [r10_383_TrMRF] 3.64

Next record, please: SAGGSKPILKIKITIYRIDKNGKLIKKIELTLPPLTEEQLKKLLEALKKLPKDVKIVEVKIELVEPSAGGSA [r2_75_TrROS_Hall] 4.16

###

Exercise: state measured folding stability dG unfold for each of the sequences provided.
Test: folding stability dG unfold (combined trypsin and chymotrypsin); higher = more stable
The response must be a number in kcal/mol with no trailing unit.

Look at this sequence and give its reported folding stability dG unfold. SAGGSAGGMTAVEVKEETVPITLTSSFFPGGVPVPGAAVSTITITTTTTIEPPTGKTVKVTVAGSAGGSAGG [r6_424_JUSTAS] -0.423

Next record, please: SAGSVSLPPGAVLTEERKLPDGSLVRTTTTVSPVPELPVDRIETTTEFYAPGGEKIGTETSSSLRPPGESAG [r5_787_JUSTAS] -0.493

Next record, please: SAGGSAGGEKPVVTRLELVETEEGLVRLRVELPDGELVEERRFPTLEEALAALPPGAKVEIVPLSAGGSAGG [r6_492_TrROS_Hall] 1.7

###

Experiment: folding stability dG unfold from trypsin proteolysis; higher = more stable
The threshold is inclusive: folding stability dG unfold of exactly 1 kcal/mol counts as Met; values below receive Not met.

Check the entry SAGSKEFPFESEFEFEGYRVKVEVKVRVEFDENGKPTKNFKPEIKIEIKPLPPKPVITAEEALKLDPEKSAG [r14_442_TrMRF] : does folding stability dG unfold equal or exceed 1 kcal/mol? Not met

Next record, please: SAGGSAGGLVIRNPDTNELIELKPGEELTITVTVEAPPAEEETTTETETRTLTLTVRLPEEAEESAGGSAGG [r6_273_TrROS_Hall] Not met

Next record, please: SAGGSAGGSAGPIVLIKIKNKNGKEIEIEMSLEELKKKLPKELKNMKVEIVEVKEVKVEKSAGGSAGGSAGG [r11_353_TrROS_Hall] Not met

Next record, please: SAGIKEIAKKLGFPIHSVKPTEPDPENGKLKWTVIFRNEKNNYYVIEIDLDDPEKIEIERFPPGEEIPSAGG [r19_72_TrROS] Met

Next record, please: SAGGSAGGSAGDKNGKPPPKIEIVPIRMSFRFPELGWWIEIDIYVIKDPAIMISISLYPYSAGGSAGGSAGG [r11_883_TrROS] Met

Next record, please: SAGGSKTITIELTTKDGYKFTITVTEKDDKVTANITFLDPTVTPEKIDETIATLEKLAKEAGKNLTISSAGG [r13_774_TrMRF] Met

Next record, please: SAGGSAGGSADGNKPPEIKINLEVERHPNGMVEITATLHWPGGKEFPVRIMYNPDKIFIEISAGGSAGGSAG [r3_259_TrROS] Met

Next record, please: SAGGMKIEKIFSSEEEAKAAAEKIKNETPEGKELKIEISKIPLKENLPPESPEILDEERYIVKVELPSAGGS [r16_795_JUSTAS] Not met

Next record, please: SAGGSAGGSAGMVDKKTGKPVEKVKVIIRNKNGKKEEKEVTLEELKELAENLPYEIEFEKSAGGSAGGSAGG [r17_125_TrROS_Hall] Met

Next record, please: SGSFKLLKVEEHPDNPSITAVLTFPDGSTATLRFRPDGSWTGYVESTGKPFTAVSGENELKLFVPEELTLSA [r9_233_TrMRF] Not met

Next record, please: SAGGSKVRIEVEELPDGTVKVTAEVEVDGVLYKIEAEFRINEDGEIVEMKVKIEARPLPPPPPPEESAGGSA [r2_474_TrROS_Hall] Met

Next record, please: SAGGMVKIVRVTFEDGRELVLTEPEKIEEFLKKALGPNFVIKEVREGYVPHPDGPPIPTFELVVERPSAGGS [r16_408_TrMRF] Met

Next record, please: SAGGMVEVKPFEIKPPGSSITVTLTDPQGNVIGSTTVSVPTGRLELTITVEPDKTVKVTLTELPPSEVSAGG [r13_935_JUSTAS] Met

Next record, please: SAGGSAGGGGSSMTIVDPKDVPFGQTFTVTTYAPGGKKISTTTLTVDVPPPVWRTDGNGKWFLESAGGSAGG [r6_487_JUSTAS] Not met

Next record, please: SAGMKITVKAVLKKGEKEYEVEFEADSLEEIIGAILELYEKLNFDELRVKIKIGDKEYEIELPFLIPDESAG [r5_946_TrMRF] Met

Next record, please: LEIIEKLKFPGYKITSVSIQRTNNKVTIVIHFRHPKEYYMISLEIDPPNGGIKITEVHPIKPGESMDDMMNS [r1_383_TrROS] Met

Next record, please: SAGGSTVKTITLEFTRDPSTGAITEAEAEIERLKNDPNWEVTDPTITPLPDGTVKVPAKVKIPSNANLSAGG [r13_428_JUSTAS] Not met

Next record, please: SAGGMYVLPIDLDPASLTEEERLAVARELAEELYAAGVPGDVMLIIPREEKPLTITIDFATGEVTVVDSAGG [r19_204_JUSTAS] Met

Next record, please: SAGGSAGGSASSVPARLPDATVLEVTTDPATGLQTALLRFPDGSEVVVTHYPDGSVEVRPLSAGGSAGGSAG [r3_348_JUSTAS] Met

Next record, please: SAGGKKIVLFVGPPELVEELKKAYPDLPFVPIPVEVLENPEPAAEIIKELKEKGYEVVVYNFPDLKESAGGS [r8_376_TrMRF] Met

Next record, please: DRIEIDVEMYDGYFYKIEIRWPGNGEPRELMFPGSLSEAKDFAEDLIQEQHPGAPVDEIDVEPVPMPPGDFS [r1_80_TrROS] Not met

Next record, please: SAVVLKEPGPVTTVVTTDPATGVTTTVTTDPSAGTTTVTTTDPASAAVTTTTYTTLPDGTPVPTTTTTPASA [r9_1073_JUSTAS] Met

Next record, please: SAGGSAMESFLGAAKEVLSQMEPGEIVLLPLERPDDKPLLVLLDPTTRRLVVFYPDGGYEEFDFPESAGGSA [r15_977_TrMRF] Met

Next record, please: SAGGKLTITLPPGVKEVKIEVDKETNEVKVTVTVEVTDENGKKHKVTRTFTFKLEDGETVTVTVTLPSAGGS [r16_552_TrROS_Hall] Met

Next record, please: SAGGSAGGSAGGDIFIPPNGKLVVIENLPSIEEALEILKNFPNLKPFIDPKTKKIIVPVSAGGSAGGSAGGS [r10_792_TrMRF] Not met

Next record, please: SAGGSAGGSGSLLEKLGLEPNSTVTVTVTPEEAEKIRAEPRVKEIKREPTPEDTYLYTITVVASAGGSAGGS [r12_750_JUSTAS] Not met

Next record, please: SAGGSAGGSAGEKTFVIDEVKITSVERLPDGSLRVTIEVRLPNGETLTLTLTLPPGAVLESAGGSAGGSAGG [r11_429_TrROS_Hall] Met
